Provide the recorded pIC50 for the entries that follow.
- Assay Overview: Inhibitory concentration against Methionine aminopeptidase-1 (EcMetAP1)
- Parameters: species or system Escherichia coli
Give bare numbers, as −log10 of the molar value.

Compound	Reported Measurement
O=C(Nc1cccnc1C(=O)Nc1nccs1)C1=CCCC1	6.44
O=C(CC1=CCCC1)Nc1cccnc1C(=O)Nc1nccs1	6.72
O=C(O)c1ccccc1C(=O)Nc1cccnc1C(=O)Nc1nccs1	6.48
CN(C)CC(=O)Nc1cccnc1C(=O)Nc1nccs1	6.92
CC1(C)OC1CC(=O)Nc1cccnc1C(=O)Nc1nccs1 (stereo unspecified)	6.15

According to the records, this compound O=C(CC1=CCCCC1)Nc1cccnc1C(=O)Nc1nccs1 displays pIC50 of 6.92

###

- Assay Overview: Inhibitory concentration against Methionine aminopeptidase-1 (ScMetAP1)
- Parameters: species or system Saccharomyces cerevisiae
Assay Endpoint: IC50 (nM)
One number for each entry, in nM.

# example entries with known answers
Smiles Record	U	Reported Measurement
O=C(CN1CCOCC1)Nc1cccnc1C(=O)Nc1nccs1	nM	510
CCOC(=O)C(=O)Nc1cccnc1C(=O)Nc1nccs1	nM	770
O=C(Nc1cccnc1C(=O)Nc1nccs1)C1=CCCCC1	nM	21900
O=C(O)c1ccccc1C(=O)Nc1cccnc1C(=O)Nc1nccs1	nM	2270
O=C(CC1=CCCC1)Nc1cccnc1C(=O)Nc1nccs1	nM	5070
NCC(=O)Nc1cccnc1C(=O)Nc1nccs1	nM	210
C=CC(=O)Nc1cccnc1C(=O)Nc1nccs1	nM	620
O=C(CC1=CCCCC1)Nc1cccnc1C(=O)Nc1nccs1	nM	8910
CC(C)=CCCC(=O)Nc1cccnc1C(=O)Nc1nccs1	nM	310

Now look at this one.
// sample CCN(CC)CC(=O)Nc1cccnc1C(=O)Nc1nccs1 , its IC50 was 230

###

For each of the molecules below, state its log10 IC50.
- Assay Overview: Inhibitory concentration against Methionine aminopeptidase-1 (ScMetAP1)
- Design: species or system Saccharomyces cerevisiae
Record value = log10 of IC50 given in nM.

Guide cases for log10 IC50, answers given:
Molecule	log10 IC50
CN(C)CC(=O)Nc1cccnc1C(=O)Nc1nccs1	2.62
C=CCC(=O)Nc1cccnc1C(=O)Nc1nccs1	2.58
NCCC(=O)Nc1cccnc1C(=O)Nc1nccs1	2.11
O=C(Nc1cccnc1C(=O)Nc1nccs1)c1cccnc1	2.52
O=C(CN(O)c1ccccc1)Nc1cccnc1C(=O)Nc1nccs1	2.36
C=C(C)CC(=O)Nc1cccnc1C(=O)Nc1nccs1	3.67

Kindly give each listed record's log10 IC50.
1. CC1(C)OC1CC(=O)Nc1cccnc1C(=O)Nc1nccs1 (stereo unspecified)
2. CC(C)(C)OC(=O)NCCC(=O)Nc1cccnc1C(=O)Nc1nccs1
3. O=C(O)CCC(=O)Nc1cccnc1C(=O)Nc1nccs1
4. O=C(CN1CCCC1)Nc1cccnc1C(=O)Nc1nccs1
5. O=C(Nc1nccs1)c1ncccc1NC(=O)C1CCCC1
6. CC(C)=CC(=O)Nc1cccnc1C(=O)Nc1nccs1

-- reply
[3.53, 2.18, 3.36, 2.18, 3.41, 2.89]

###

Kindly state pIC50 for each of the entries shown.
- Assay Overview: Inhibitory concentration against Methionine aminopeptidase-1 (EcMetAP1)
- Set-up: species or system Escherichia coli
Give bare numbers, as −log10 of the molar value.

Compound	Reported Measurement
C=CCC(=O)Nc1cccnc1C(=O)Nc1nccs1	6.89

Hey, can you go through the list below and give me pIC50 for every item?
1. NCCC(=O)Nc1cccnc1C(=O)Nc1nccs1
2. O=C(Nc1cccnc1C(=O)Nc1nccs1)C1=CCCCC1

-- reply
[7.13, 6.01]

###

- Assay Overview: Inhibitory concentration against Methionine aminopeptidase-1 (ScMetAP1)
- Set-up: species or system Saccharomyces cerevisiae
Assay Endpoint: log10 of IC50 (log10 of the value in nM)
Log10 applied to IC50; unit prior to transform: nM.

Compound	Assay Endpoint	Reported Measurement
O=C(Nc1nccs1)c1ncccc1NC(=O)C1CC=CCC1 (centres undefined)	log10 of IC50	4.18

Give log10 of IC50 for each of the items listed below.
1. O=C(O)CC(=O)Nc1cccnc1C(=O)Nc1nccs1
2. O=C(CN1CCCCC1)Nc1cccnc1C(=O)Nc1nccs1
3. O=C(CC1CCCC1)Nc1cccnc1C(=O)Nc1nccs1
4. O=C(Nc1cccnc1C(=O)Nc1nccs1)C1=CCCC1
5. CC(C)(C)OC(=O)NCC(=O)Nc1cccnc1C(=O)Nc1nccs1

-- reply
3.18
2.28
3.83
3.71
2.58

I have 6 compounds here; please give me log10 of IC50 for each one.
1. O=C(Nc1nccs1)c1ccccn1
2. CC(C)=CCC(=O)Nc1cccnc1C(=O)Nc1nccs1
3. O=C(Nc1nccs1)c1ncccc1NC(=O)C1CC1
4. CCOC(=O)CC(=O)Nc1cccnc1C(=O)Nc1nccs1
5. C/C=C/C(=O)Nc1cccnc1C(=O)Nc1nccs1
6. CC1(C)OC1CCC(=O)Nc1cccnc1C(=O)Nc1nccs1 (centres undefined)

-- reply
3.85
2.15
3.41
2.86
2.91
3.52

Reported log10 of IC50 of C=CCCC(=O)Nc1cccnc1C(=O)Nc1nccs1 : 4.09

###

- Assay Overview: Inhibitory concentration against Methionine aminopeptidase-1 (EcMetAP1)
- Parameters: species or system Escherichia coli
Binary call on IC50 with cut-off 400 nM: strictly below means fulfilled, and equality or higher means not fulfilled.

Compound	Discrete Label
O=C(O)CCC(=O)Nc1cccnc1C(=O)Nc1nccs1	fulfilled
CCOC(=O)CC(=O)Nc1cccnc1C(=O)Nc1nccs1	fulfilled
O=C(CN1CCOCC1)Nc1cccnc1C(=O)Nc1nccs1	fulfilled
O=C(O)CC(=O)Nc1cccnc1C(=O)Nc1nccs1	fulfilled
O=C(Nc1cccnc1C(=O)Nc1nccs1)c1cccnc1	fulfilled
O=C(CN1CCCC1)Nc1cccnc1C(=O)Nc1nccs1	fulfilled
C=CCCC(=O)Nc1cccnc1C(=O)Nc1nccs1	not fulfilled
O=C(Nc1nccs1)c1ncccc1NC(=O)C1CCC1	not fulfilled
C/C=C/C(=O)Nc1cccnc1C(=O)Nc1nccs1	not fulfilled
CC(C)=CCC(=O)Nc1cccnc1C(=O)Nc1nccs1	fulfilled

-- ask Bench note: check whether O=C(CC1CCCC1)Nc1cccnc1C(=O)Nc1nccs1 shows IC50 below 400 nM
-- reply not fulfilled

-- ask Is IC50 strictly under 400 nM for the entry O=C(O)C(=O)Nc1cccnc1C(=O)Nc1nccs1 ?
-- reply not fulfilled

-- ask Lab note: confirm whether the reported IC50 for this compound is below 400 nM, equality not counting. compound: C=C(C)CC(=O)Nc1cccnc1C(=O)Nc1nccs1
-- reply fulfilled

-- ask Report whether reported IC50 is lower than 400 nM (strictly) for C=CC(=O)Nc1cccnc1C(=O)Nc1nccs1
-- reply not fulfilled

-- ask Answer whether the compound CC(C)(C)OC(=O)NCC(=O)Nc1cccnc1C(=O)Nc1nccs1 has IC50 strictly less than 400 nM
-- reply fulfilled

###

Answer each item with its documented pIC50.
- Assay Overview: Inhibitory concentration against Methionine aminopeptidase-1 (EcMetAP1)
- Parameters: species or system Escherichia coli
One number for each entry, as −log10 of the molar value.

Answered examples (2):
Molecule	pIC50
CC(C)(C)OC(=O)NCCC(=O)Nc1cccnc1C(=O)Nc1nccs1	7.31
O=C(Nc1nccs1)c1ncccc1NC(=O)C1CC=CCC1 (stereo not drawn)	6.09

Could I get pIC50 for every one of these entries?
1. O=C(Nc1nccs1)c1ccccn1
2. O=C(CN1CCCCC1)Nc1cccnc1C(=O)Nc1nccs1

-- reply
5.30
7.28

Okay, here is my list. What is pIC50 for each of these?
1. CCOC(=O)C(=O)Nc1cccnc1C(=O)Nc1nccs1
2. O=C(CN(O)c1ccccc1)Nc1cccnc1C(=O)Nc1nccs1
3. CC(C)=CCCC(=O)Nc1cccnc1C(=O)Nc1nccs1
4. CC1(C)OC1CCC(=O)Nc1cccnc1C(=O)Nc1nccs1 (stereo not drawn)
5. CC(C)=CC(=O)Nc1cccnc1C(=O)Nc1nccs1
6. O=C(Nc1nccs1)c1ncccc1NC(=O)C1CC1
7. O=C(Nc1nccs1)c1ncccc1NC(=O)C1CCCC1
8. NCC(=O)Nc1cccnc1C(=O)Nc1nccs1

-- reply
1: 7.30; 2: 7.24; 3: 6.21; 4: 6.25; 5: 6.66; 6: 6.89; 7: 6.46; 8: 7.04

So for CCN(CC)CC(=O)Nc1cccnc1C(=O)Nc1nccs1 , the logged pIC50 turned out to be 7.31
